The origin of these recorded values is ChEMBL document CHEMBL4414573.

target: Retinoic acid receptor RXR-alpha (Homo sapiens); experiment: Displacement of CU-6PMN from human RXRalpha LBD incubated for 2 hrs by fluorescence based assay; settings: read-out: Ki
Sequence (P19793 whole entry, the tested form may be a part): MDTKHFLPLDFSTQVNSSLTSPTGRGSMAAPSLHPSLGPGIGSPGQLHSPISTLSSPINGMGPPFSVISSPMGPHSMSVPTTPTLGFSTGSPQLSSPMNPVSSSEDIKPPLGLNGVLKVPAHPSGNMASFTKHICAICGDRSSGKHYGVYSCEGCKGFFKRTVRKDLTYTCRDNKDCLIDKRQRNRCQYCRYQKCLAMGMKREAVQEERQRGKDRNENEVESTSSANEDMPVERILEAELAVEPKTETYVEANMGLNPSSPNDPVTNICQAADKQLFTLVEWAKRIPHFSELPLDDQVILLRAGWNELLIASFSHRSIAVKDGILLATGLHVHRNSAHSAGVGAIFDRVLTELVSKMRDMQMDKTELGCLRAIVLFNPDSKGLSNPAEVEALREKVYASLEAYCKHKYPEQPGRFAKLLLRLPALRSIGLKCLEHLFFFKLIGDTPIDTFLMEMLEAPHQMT
MEASUREMENT_KIND: Ki (µM)
Express your answer in µM, writing the number without its unit.

Prompt: GET /values?readout=Ki&item= CC/C=C\C/C=C\C/C=C\C/C=C\C/C=C\CCCC(=O)O [ICOSAPENT]
Completion: 7.63
